Recorded values, source patent US10407467B2.

Test system: Pseudomonas aeruginosa
Assay: MIC, compound in combination with a second agent (broth microdilution)
Assay type: cell-based
Settings: 1:1 (wt:wt) combination with Rifampicin; MIC = total drug concentration; strain ATCC CRM-9027
Method: To evaluate the potency and spectrum of the compounds both alone and in combination with another agent, susceptibility testing was performed against up to four strains of each of the four Gram negative pathogens, Escherichia coli, Pseudomonas aeruginosa, Klebsiella pneumoniae and Acinetobacter baumannii. Ratios of components in a combination, such as 1:1, refers to a weight to weight ratio. […]
Structures can show the parent of a compound that is named as a salt. Bridge positions count the residues as written; N and C are the ends. Square brackets hold non-standard residues; d marks the D form. Peptide text beside a SMILES is read from it. * marks the point of attachment. ξ: configuration not given here. X12 = CC(C)C[C@H](N)[C@H](O)C(=O)*; Thr(3ξ) = CC(O)[C@H](N)C(=O)O; Octanoyl = CCCCCCCC(=O)*; Dab = NCC[C@H](N)C(=O)O; X4 = NC1CCCC1C(=O)*
A collection of molecules and their measured MIC P. aeruginosa ATCC CRM-9027

Molecule | MIC P. aeruginosa ATCC CRM-9027 [micrograms/mL]
CC(C)C[C@@H]1NC(=O)[C@@H](Cc2ccccc2)NC(=O)[C@H](CCN)NC(=O)[C@@H](NC(=O)[C@H](CCN)NC(=O)[C@@H](NC(=O)C2CCCC2N)C(C)O)CCNC(=O)[C@H](C(C)O)NC(=O)[C@H](CCN)NC(=O)[C@H](CCN)NC1=O (stereo partly drawn) [Example 7] (X4-[Thr(3ξ)][Dab][Dab][Dab][dF]L[Dab][Dab][Thr(3ξ)]; lactam 3-C) | 0.25
CC(C)C[C@@H]1NC(=O)[C@@H](Cc2ccccc2)NC(=O)[C@H](CCN)NC(=O)[C@@H](NC(=O)[C@H](CCN)NC(=O)[C@@H](NC(=O)[C@@H](O)[C@@H](N)CC(C)C)C(C)O)CCNC(=O)[C@H](C(C)O)NC(=O)[C@H](CCN)NC(=O)[C@H](CCN)NC1=O (stereo partly drawn) [Example 41, trifluoroacetate salt] (X12-[Thr(3ξ)][Dab][Dab][Dab][dF]L[Dab][Dab][Thr(3ξ)]; lactam 3-C) | 0.25
CCCCCCCC(=O)N[C@H](C(=O)N[C@H](CO)C(=O)N[C@H]1CCNC(=O)[C@H](C(C)O)NC(=O)[C@H](CCN)NC(=O)[C@H](CCN)NC(=O)[C@H](CC(C)C)NC(=O)[C@@H](Cc2ccccc2)NC(=O)[C@H](CCN)NC1=O)C(C)O (stereo partly drawn) [Example C1, NAB-739 TFA salt, reference compound] (Octanoyl-[Thr(3ξ)][dS][Dab][Dab][dF]L[Dab][Dab][Thr(3ξ)]; lactam 3-C) | 2
